Biological target: T1, B-cat-Halo (beta-catenin HaloTag NanoBRET construct expressed in HEK293 cells) (UniProt P35222 1-781, HaloTag NanoBRET 618 Ligand bound to the HaloTag)
T1 sequence (looked up): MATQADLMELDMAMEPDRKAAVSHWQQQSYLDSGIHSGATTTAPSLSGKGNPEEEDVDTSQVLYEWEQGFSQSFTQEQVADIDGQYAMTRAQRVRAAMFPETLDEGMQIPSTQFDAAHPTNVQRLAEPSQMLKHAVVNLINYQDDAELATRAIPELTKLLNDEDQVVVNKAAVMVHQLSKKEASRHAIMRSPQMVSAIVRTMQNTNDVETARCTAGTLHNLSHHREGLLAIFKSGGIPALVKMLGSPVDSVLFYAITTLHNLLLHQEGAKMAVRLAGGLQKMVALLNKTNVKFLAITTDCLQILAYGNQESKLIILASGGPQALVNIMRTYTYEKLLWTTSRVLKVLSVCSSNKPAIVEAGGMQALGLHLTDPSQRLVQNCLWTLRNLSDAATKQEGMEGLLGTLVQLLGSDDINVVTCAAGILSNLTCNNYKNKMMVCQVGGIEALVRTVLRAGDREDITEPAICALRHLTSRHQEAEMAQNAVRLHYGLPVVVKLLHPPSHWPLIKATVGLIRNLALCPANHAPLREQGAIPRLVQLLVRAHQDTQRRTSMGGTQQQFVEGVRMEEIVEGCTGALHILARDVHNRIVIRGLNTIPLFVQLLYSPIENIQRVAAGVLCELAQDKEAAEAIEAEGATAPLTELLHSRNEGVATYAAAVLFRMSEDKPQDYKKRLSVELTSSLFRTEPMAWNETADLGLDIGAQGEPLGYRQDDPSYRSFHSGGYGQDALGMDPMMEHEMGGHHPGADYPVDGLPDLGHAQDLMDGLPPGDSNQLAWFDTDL
Assay: cell-based or functional assay
Starred links: 1 amine or outer side, 2 acyl side, 3 side chain; linkers in the order of their positions; H or OH if unused. Positions of bridges follow the written chain, without caps; N, C: chain ends. Non-standard residues stand in square brackets, D forms with d. Primed or numbered codes have the meaning given here. TfeGA = (S)-2-amino-3-((carboxymethyl)(2,2,2-trifluoroethyl)amino)propanoic acid, O=C([C@H](CN(CC(=O)[*:3])CC(F)(F)F)N[*:1])[*:2]; PyrS2 = (S)-3-amino-1-((pent-4-en-1-yloxy)carbonyl)pyrrolidine-3-carboxylic acid, C=CCCCOC(=O)N1CC[C@@](N[*:1])(C(=O)[*:2])C1; B5(22) = 2-amino-2-(pent-4-en-1-yl)hept-6-enoic acid (two alkene side chains), C=CCCCC(CCCC=C)(N[*:1])C(=O)[*:2]; B5(3) = 2,2-bis(4-pentenyl)glycine (stitching residue), C=CCCCC(CCCC=C)(N[*:1])C(=O)[*:2]; 2F3MeF = Cc1cccc(C[C@H](N[*:1])C(=O)[*:2])c1F; Phe(3-Cl) = N[C@@H](Cc1cccc(Cl)c1)C(=O)O; Phe(2-Br) = N[C@@H](Cc1ccccc1Br)C(=O)O; Phe(2-Cl) = N[C@@H](Cc1ccccc1Cl)C(=O)O; Bta = N[C@@H](Cc1csc2ccccc12)C(=O)O; αAllylPro = C=CC[C@@]1(C(=O)O)CCCN1; tBuAla = CC(C)(C)C[C@H](N)C(=O)O; 3Thi = N[C@@H](Cc1ccsc1)C(=O)O; S8 = C=CCCCCCC[C@](C)(N)C(=O)O
In this section, each of the binders is paired with its reported NanoBRET Abs IC50.

{"Binder": "Ac-[αAllylPro]D[tBuAla][B5(22)]D[TfeGA]AAFN[S8][Phe(3-Cl)][Bta]Q-NH2 (staple 1-4, 4-11) [I-933]", "NanoBRET Abs IC50": "22.2 µM"}
{"Binder": "Ac-[αAllylPro]D[tBuAla][B5(22)]DDAAFN[PyrS2][3Thi][Bta]QK-NH2 (staple 1-4, 4-11) [I-939]", "NanoBRET Abs IC50": "25.1 µM"}
{"Binder": "Ac-[αAllylPro]D[tBuAla][B5(22)]D[TfeGA]AAFN[S8][2F3MeF][Bta]Q-NH2 (staple 1-4, 4-11) [I-934]", "NanoBRET Abs IC50": "19.2 µM"}
{"Binder": "Ac-[αAllylPro]D[tBuAla][B5(3)]D[TfeGA]AAFT[S8][Phe(2-Cl)][Bta]Q-NH2 (staple 1-4, 4-11) [I-930]", "NanoBRET Abs IC50": "13.5 µM"}
{"Binder": "Ac-[αAllylPro]D[tBuAla][B5(22)]DDAAFN[PyrS2][3Thi][Bta]QK(PropynPEG1)-NH2 (staple 1-4, 4-11) [I-935]", "NanoBRET Abs IC50": "33.1 µM"}
{"Binder": "Ac-[αAllylPro]D[tBuAla][B5(22)]D[TfeGA]AAFN[S8][Phe(2-Br)][Bta]Q-NH2 (staple 1-4, 4-11) [I-932]", "NanoBRET Abs IC50": "11.4 µM"}
{"Binder": "Ac-[αAllylPro]D[tBuAla][B5(22)]DDAAFN[PyrS2][3Thi][Bta]QK(PropynPEG2)-NH2 (staple 1-4, 4-11) [I-936]", "NanoBRET Abs IC50": "22.2 µM"}
